Test system: Plasmodium falciparum
method_summary: GSK_TCMDC: Inhibition of Plasmodium falciparum 3D7 in whole red blood cells, using parasite LDH activity as an index of growth. Test compounds present at 2uM
Type: functional
# reported Inhibition; entries follow
Write the value in % as a bare number.

| input_smiles | measured_quantity | unit_text | test_result |
| --- | --- | --- | --- |
| COc1ccc(-n2ccnc2SCC(=O)Nc2cccc(C(F)(F)F)c2)c(OC)c1 | Inhibition | % | 98 |

Q: // returns reported Inhibition for input O=C(COc1ccccc1)Nn1cnc2ccccc21
Result: 91

Q: For O=C(Nc1ccc(Cl)cc1)c1cc(Cl)ccc1NC(=O)C1(c2ccc(Cl)cc2)CCCC1 , what is its reported Inhibition?
Result: 85

Q: Sample Cc1nnsc1C(=O)Nc1ccc(-c2ccc(-c3nc4ccccc4[nH]3)s2)cc1 — what was its Inhibition?
Result: 92

Q: Value lookup for Inhibition; key = Oc1cccc(-c2nc(-c3ccccc3)c(-c3ccc(Oc4ccc(-c5[nH]c(-c6cccc(O)c6)nc5-c5ccccc5)cc4)cc3)[nH]2)c1
Result: 91

---

Catalogue of Inhibition readings, one per entry.
System: HepG2
method_summary: GSK_TCMDC: Percent inhibition of human HepG2 cell line. Test compounds present at 10uM.
Assay type: functional
The answer is to be given in %; state only the numeric part.

| molecule | experimental_system | unit_text | Inhibition |
| --- | --- | --- | --- |
| NC1CCN(Cc2ccc(-c3ccc(-c4nc5ccccc5[nH]4)s3)cc2)C1.O=C(O)C(F)(F)F (centres undefined) | HepG2 | % | 32 |
| O=C1SC(S)=NC1=CNCCCCCCO | HepG2 | % | 7 |
| Cc1cc2ccc(/C=C/C(=O)NC3CCC(CCN4CCc5ccc(C#N)cc5CC4)CC3)cc2[nH]1.Cl (centres undefined) | HepG2 | % | 19 |
| O=C(NCc1ccc(Cl)c(Cl)c1)c1ccc(-c2nc3ccc(Cl)cc3[nH]2)cc1 | HepG2 | % | 20 |
| O=C(Nc1ccc(OC2CCN(Cc3ccc(F)cc3)C2)c(Cl)c1)c1cccs1.O=C(O)C(F)(F)F (centres undefined) | HepG2 | % | 21 |

Q: Item under review: Cc1cccc2nc(-c3ccc(-c4ccc(NC(=O)NC5CC5c5ccccc5)cc4)cc3)[nH]c12 (centres undefined) . Reported Inhibition?
Result: 28

Q: Report Inhibition for Br.COc1ccc2c(c1)CCCC2C(C)NCC(O)c1cccc(C(F)(F)F)c1 (centres undefined) please.
Result: 3

Q: Item O=C(NCCN1CCCCC1)c1ccc(CNC(=O)c2ccc(O)c(-c3cccc(C(F)(F)F)c3)c2)cc1 has what recorded Inhibition?
Result: 3

Q: Find the recorded Inhibition belonging to CO/C(=C\C=C\c1cc2cc(Cl)c(Cl)cc2[nH]1)C(=O)NCCCN1CCCC[C@H]1C and report it.
Result: 41

---

Tested on: HepG2
method_summary: GSK_TCMDC: Percent inhibition of human HepG2 cell line. Test compounds present at 10uM.
Format: functional
measured_quantity: Inhibition (%)
Could you give me the number in %? Just the number is fine.

| molecule | unit_text | test_result |
| --- | --- | --- |
| CCCO[C@H](C(=O)OC)[C@@H](CC1Cc2ccccc2C1)C(=O)NCCC1=CCCCC1 | % | 6 |

Q: May I ask what Inhibition has been recorded for CC(C)(Oc1ccc(Cl)cc1)C(=O)NCCC1CCN(CCCCCNC(=O)/C=C/c2ccc(Cl)c(Cl)c2)CC1 ?
Result: 73

Q: Which measured Inhibition value corresponds to Cc1ccc(NC(=O)c2ccc(NCCCN3CC(C)CC(C)C3)c([N+](=O)[O-])c2)cc1F (stereo not given) ?
Result: 18

Q: Query (molecule): O=C(c1cc2nc3c(c(C(F)(F)F)n2n1)CCc1ccccc1-3)N1CCN2CCCC2C1 (stereo not given) ; field requested: Inhibition
Result: 0

Q: Return reported Inhibition; argument: CCCCCCN(CCCCCC)CC(O)c1cc(-c2ccc(Cl)cc2)nc2c(C)cc(C)cc12 (stereo not given)
Result: 27
